B1: Homeobox protein cut-like 2, residues 895 to 963; numbered along this chain, O14529 (parent)
chain: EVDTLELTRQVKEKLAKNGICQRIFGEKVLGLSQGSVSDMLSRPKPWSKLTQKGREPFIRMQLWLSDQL

- Variants of: B1
- ASSAY METHOD TEXT: abundance fitness (aPCA) (normalised: wild type 0, dead -1); higher = more abundant; growth selection in yeast, the domain comes from the species named
- CONDITION PARAMETERS: Homo sapiens
Would you mind sorting the entries by abundance fitness according to these classes? low bracket = under -0.3, middle bracket = from -0.3 up to -0.09, high bracket = -0.09 and over

[Q] # bin lookup: classify K28N by its abundance fitness
[A] middle bracket

[Q] Param item: T4W
[A] high bracket

[Q] Param item: E27G
[A] high bracket

[Q] Param item: K28Q
[A] high bracket

[Q] Param item: K14I
[A] high bracket

[Q] Param item: L65Q
[A] low bracket

[Q] Param item: E56W
[A] low bracket

[Q] Param item: P46S
[A] middle bracket

[Q] Param item: S48M
[A] low bracket

[Q] Param item: R55H
[A] low bracket

[Q] Param item: V29I
[A] high bracket

[Q] Param item: G31I
[A] low bracket

[Q] Param item: E13Q
[A] middle bracket

[Q] Param item: V37A
[A] middle bracket

[Q] Param item: G19L
[A] low bracket

[Q] Param item: R43M
[A] middle bracket

[Q] Param item: L32H
[A] middle bracket

[Q] Param item: R60F
[A] low bracket

Just for reference, the Human Domainome abundance scans (Beltran et al. 2025) is where these values come from.
